Answer each item with its documented IC50.
Biological target: TARP γ8 dependent AMPA receptor (GluA1o-g8 fusion channel) (Homo sapiens (Human), UniProt P42261+Q8WXS5)
Sequence (P42261 other isoform, or with tags, fused parts or gaps): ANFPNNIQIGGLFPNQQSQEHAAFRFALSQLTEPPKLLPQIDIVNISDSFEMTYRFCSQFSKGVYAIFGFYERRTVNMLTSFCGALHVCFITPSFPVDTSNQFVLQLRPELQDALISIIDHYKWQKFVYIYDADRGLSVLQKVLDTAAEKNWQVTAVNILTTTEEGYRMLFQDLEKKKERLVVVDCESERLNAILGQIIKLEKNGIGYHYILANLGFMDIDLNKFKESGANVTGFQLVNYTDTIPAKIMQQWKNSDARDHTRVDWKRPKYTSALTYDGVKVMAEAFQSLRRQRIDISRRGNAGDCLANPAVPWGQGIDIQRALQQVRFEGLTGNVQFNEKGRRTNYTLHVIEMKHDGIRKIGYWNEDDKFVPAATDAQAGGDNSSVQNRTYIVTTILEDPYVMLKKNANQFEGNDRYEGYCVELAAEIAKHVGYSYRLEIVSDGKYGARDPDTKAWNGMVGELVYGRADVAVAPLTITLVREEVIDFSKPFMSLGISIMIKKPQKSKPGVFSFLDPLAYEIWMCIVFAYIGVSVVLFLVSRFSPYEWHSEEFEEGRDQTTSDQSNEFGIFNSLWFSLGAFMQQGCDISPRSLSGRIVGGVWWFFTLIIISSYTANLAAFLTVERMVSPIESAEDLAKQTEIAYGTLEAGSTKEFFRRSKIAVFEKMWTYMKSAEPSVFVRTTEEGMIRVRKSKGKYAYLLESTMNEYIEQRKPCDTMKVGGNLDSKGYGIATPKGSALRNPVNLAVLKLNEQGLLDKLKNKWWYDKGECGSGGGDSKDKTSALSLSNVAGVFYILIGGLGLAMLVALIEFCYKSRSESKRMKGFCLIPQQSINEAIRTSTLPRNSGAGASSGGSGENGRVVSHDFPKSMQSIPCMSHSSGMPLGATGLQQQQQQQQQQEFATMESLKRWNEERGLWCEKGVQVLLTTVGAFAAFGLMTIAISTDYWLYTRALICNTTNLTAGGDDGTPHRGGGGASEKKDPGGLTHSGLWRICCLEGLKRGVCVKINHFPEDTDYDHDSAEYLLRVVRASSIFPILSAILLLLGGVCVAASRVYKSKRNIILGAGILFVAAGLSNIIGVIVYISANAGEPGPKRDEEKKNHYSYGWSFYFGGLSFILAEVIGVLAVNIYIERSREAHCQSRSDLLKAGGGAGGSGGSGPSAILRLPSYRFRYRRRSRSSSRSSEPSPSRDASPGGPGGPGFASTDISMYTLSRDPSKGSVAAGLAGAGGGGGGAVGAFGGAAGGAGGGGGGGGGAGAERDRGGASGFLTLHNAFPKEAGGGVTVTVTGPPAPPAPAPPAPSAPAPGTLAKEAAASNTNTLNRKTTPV
Test: Calcium flux assay (FLIPR), HEK293 cells expressing GRIA1o-CACNG8 fusion
Format: cell-based
Conditions: inhibition of calcium flux after 15 μM glutamate, read-out: GluR1-γ8 pIC50 (converted)
Express it in nM; write the number only.

// query What does the data say about its IC50? Entry: O=C(Nc1ccccc1)c1ccc(Cl)c(-c2ccc3[nH]c(=O)[nH]c3c2)c1
// result 2510

// query What does the data say about its IC50? Entry: O=c1[nH]c2cc(F)c(-c3c(Cl)cccc3OC(F)(F)F)cc2s1
// result 63.1

// query What does the data say about its IC50? Entry: COc1cccc(OCC(C)(C)C)c1-c1ccc2[nH]c(=O)[nH]c2c1
// result 100

// query What does the data say about its IC50? Entry: CC(C)Oc1cccc(OC(C)C)c1-c1ccc2[nH]c(=O)[nH]c2c1
// result 63.1

// query What does the data say about its IC50? Entry: O=c1[nH]c2ccc(-c3c(Cl)cccc3-c3ccc(F)nc3)cc2[nH]1
// result 316

// query What does the data say about its IC50? Entry: O=c1[nH]c2ccc(-c3c(Cl)cccc3-c3cncnc3)cc2[nH]1
// result 3980

// query What does the data say about its IC50? Entry: Cc1c(CN2CCCCC2)cccc1-c1ccc2[nH]c(=O)[nH]c2c1
// result 1580

// query What does the data say about its IC50? Entry: Cc1c(C#N)cccc1-c1ccc2[nH]c(=O)[nH]c2c1
// result 251

====

Answer each item with its documented peak current (% control).
Test system: endogenous γ 8-containing AMPA receptor currents
Experiment: Whole-cell electrophysiology on acutely-dissociated mouse hippocampal neurons
Type: cell-based
Conditions: 1 μM compound; 10 mM glutamate, 500 ms; held at −60 mV
Express it in %; write the number only.

// query What does the data say about its peak current (% control)? Entry: COc1cccc(OCC(C)C)c1-c1ccc2[nH]c(=O)[nH]c2c1
// result 69

// query What does the data say about its peak current (% control)? Entry: N#CCc1cccc(Cl)c1-c1ccc2[nH]c(=O)[nH]c2c1
// result 63

// query What does the data say about its peak current (% control)? Entry: N#CCc1cccc(OC(F)(F)F)c1-c1ccc2[nH]c(=O)[nH]c2c1
// result 59

// query What does the data say about its peak current (% control)? Entry: Cc1cccc(Cl)c1-c1ccc2[nH]c(=O)[nH]c2c1
// result 72

// query What does the data say about its peak current (% control)? Entry: O=c1[nH]c2ccc(-c3c(Cl)cccc3C3CC3)cc2[nH]1
// result 70

// query What does the data say about its peak current (% control)? Entry: O=c1[nH]c2ccc(-c3c(Cl)cccc3OC(F)(F)F)cc2[nH]1
// result 61

// query What does the data say about its peak current (% control)? Entry: O=c1[nH]c2ccc(-c3c(Cl)ccc(Cl)c3Cl)cc2[nH]1
// result 86

====

Biological target: TARP γ8 dependent AMPA receptor (GluA1o-g8 fusion channel) (Homo sapiens (Human), UniProt P42261+Q8WXS5)
Experiment: Calcium flux assay (FLIPR), HEK293 cells expressing GRIA1o-CACNG8 fusion
Format: cell-based
Conditions: inhibition of calcium flux after 15 μM glutamate, read-out: GluR1-γ8 pIC50 (converted)
Answer each item with its documented IC50.
Express it in nM; write the number only.

// query What does the data say about its IC50? Entry: Cc1c(CN2CCOC(C)C2)cccc1-c1ccc2[nH]c(=O)[nH]c2c1 (racemic) [Example 150]
// result 200

// query What does the data say about its IC50? Entry: Cc1c(CN2CCOCC2C)cccc1-c1ccc2[nH]c(=O)[nH]c2c1 (stereo in doubt) [Example 153]
// result 316

// query What does the data say about its IC50? Entry: Cc1cccc(-c2ccccc2)c1-c1ccc2[nH]c(=O)[nH]c2c1 [Example 179]
// result 63.1

// query What does the data say about its IC50? Entry: N#Cc1ccc(-c2cccc(Cl)c2-c2ccc3[nH]c(=O)[nH]c3c2)cc1 [Example 164]
// result 39.8
